- test.target: T1, mouse AQP3 in cell lysate of HEK293T cells overexpressing mouse AQP3 and a myc-biotinylated tag (mouse, UniProt Q8R2N1 1-292, biotinylated tag (site not given))
- T1 construct: also called AQP3 (cell lysate); not shown: myc-biotinylated tag
- T1 sequence (looked up): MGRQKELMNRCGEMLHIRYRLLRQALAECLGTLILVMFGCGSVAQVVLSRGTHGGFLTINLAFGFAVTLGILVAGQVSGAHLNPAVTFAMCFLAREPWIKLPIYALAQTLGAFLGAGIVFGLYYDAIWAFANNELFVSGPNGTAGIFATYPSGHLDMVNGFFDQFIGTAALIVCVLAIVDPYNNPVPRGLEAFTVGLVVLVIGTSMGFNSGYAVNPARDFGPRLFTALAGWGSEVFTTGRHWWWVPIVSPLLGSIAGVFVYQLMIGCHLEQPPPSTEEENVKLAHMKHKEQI
- experiment.notes: ELISA on lysate of HEK293T cells overexpressing mouse AQP3 and a myc-biotinylated tag
recorded.metric: binding result

>>> reported_result("antibody C (antibody, mouse IgG2a, kappa, V domains shown, also called anti AQP3 mAb C) VH: QVQLKQSGAELARPGASVKLSCKASGYNFKSYGISWVKQRTGQGLEWIGEIYPGSGNTYYNEKLKGKATLTADKSSSTAYMELRSLTSEDSAVYFCARTYGYDSFPWFAYWGQGTLVTVSS VL: DIVMTQAAPSVPVTPGESVSISCRSSKSLLHSNGNTYLYWFLQRPGQSPQLLIYRVSNLASGVPDRFSGSGSGTAFTLRISRVEAEDEGVYYCMQHLEYPFTFGAGTKLEIKR")
"binds"
>>> reported_result("antibody B (antibody, mouse IgG2a, kappa, V domains shown, also called anti AQP3 mAb B) VH: EVQLVESGGDLVKPGGSLKLSCAASGFTFSSYGMSWVRQTPDKRLEWVATISRGSIYTYYPDSVKGRFTISRDNAKNTLYLQMSSLKSEDTAMYYCARLSLYDYDGARYTMDYWGQGTSVTVSS VL: DIVMTQSPKFMSTSVGDRVSITCKASQDVGTAVAWYQQKPGQSPKLLIYWASTRHTGVPDRFTGSGSGTDFTLTISNVQSEDLADYFCQQYSSYHTFGAGTKLELKR")
"binds"
>>> reported_result("antibody H (antibody, mouse IgG2a, kappa, V domains shown, also called anti AQP3 mAb H) VH: EVKLVESGGDLVKPGGSLKLSCAASGFTFSSYGMSWVRQTPDKRLEWVATISRRSIYTYYPDSVQGRFTISRDNAKNTLYLQMSSLKSEDTAMYYCARLSLYDYDGARYTMDYWGQGTSVTVSS VL: DIKMTQSPKFMSTSVGDRVSITCKASQDVGTAVAWYQQKPGQSPKLLIYWASTRHTGVPDRFTGSGSGTDFTLTISNVQSEDLADYFCQQYSSYHTFGAGTKLEIKR")
"binds"
